Recorded values, source PubChem BioAssay (NCI).

- System: T-47D breast
- assaySummary: NCI tumour cell line growth inhibition, 48 h
I'd appreciate it if you could supply GI50 values for the items below.

Request - read-out GI50 | tested on T-47D breast | compound COC(=O)c1ccc(C2SC(C)C(=O)N2NC(=O)C(O)c2ccccc2)cc1 (stereo not drawn) > 100 µM

Please provide the recorded GI50 for `C#CC#CC#CC#CC#CC#CC#CC#CC[C@@H]1OC[C@H](COC(=O)O[C@@H](C(=O)O[C@H]2C[C@@]3(O)[C@@H](OC(=O)c4ccccc4)[C@@H]4[C@]5(OC(C)=O)CO[C@@H]5C[C@H](O)[C@@]4(C)C(=O)[C@H](OC(C)=O)C(=C2C)C3(C)C)[C@@H](NC(=O)c2ccccc2)c2ccccc2)O1` , tested on T-47D breast. 1.07 µM

// map `NS(=O)(=O)c1ccc(N=Nc2c(O)[nH]c3ccc(Cl)cc23)cc1` to recorded GI50 (system: T-47D breast) > 25 µM

Observed GI50 on T-47D breast for `O=C1c2ccccc2S(=O)(=O)N1CSC(=S)N1CCOCC1` , please. > 100 µM

So what GI50 did `Cn1cc(C2=C(n3ccc4ccccc43)C(=O)NC2=O)c2ccccc21` get with T-47D breast? > 25 µM

Observed GI50 on T-47D breast for O=C1C=CC2(NN=C(c3ccccc3)N2c2ccccc2)c2cccc(O)c21 (stereo not drawn) , please. 4.88 µM

Query GI50 on T-47D breast for `O=C1NC(=NCc2c(Cl)cccc2Cl)S/C1=C\c1ccc2ncccc2c1` 9.64 µM

So what GI50 did `CCCCCCCCCCCCCCCC(=O)Nc1ccn([C@@H]2O[C@H](CO)[C@@H](O)[C@@H]2C#N)c(=O)n1` get with T-47D breast? 33.2 µM
